# target_of_assay: human BKαβ1 channels (Homo sapiens)
# Construct: expressed in transfected cells; host or cells: CHO cells (G418 and hygromycin selection)
# Sequence (Q12791 whole entry): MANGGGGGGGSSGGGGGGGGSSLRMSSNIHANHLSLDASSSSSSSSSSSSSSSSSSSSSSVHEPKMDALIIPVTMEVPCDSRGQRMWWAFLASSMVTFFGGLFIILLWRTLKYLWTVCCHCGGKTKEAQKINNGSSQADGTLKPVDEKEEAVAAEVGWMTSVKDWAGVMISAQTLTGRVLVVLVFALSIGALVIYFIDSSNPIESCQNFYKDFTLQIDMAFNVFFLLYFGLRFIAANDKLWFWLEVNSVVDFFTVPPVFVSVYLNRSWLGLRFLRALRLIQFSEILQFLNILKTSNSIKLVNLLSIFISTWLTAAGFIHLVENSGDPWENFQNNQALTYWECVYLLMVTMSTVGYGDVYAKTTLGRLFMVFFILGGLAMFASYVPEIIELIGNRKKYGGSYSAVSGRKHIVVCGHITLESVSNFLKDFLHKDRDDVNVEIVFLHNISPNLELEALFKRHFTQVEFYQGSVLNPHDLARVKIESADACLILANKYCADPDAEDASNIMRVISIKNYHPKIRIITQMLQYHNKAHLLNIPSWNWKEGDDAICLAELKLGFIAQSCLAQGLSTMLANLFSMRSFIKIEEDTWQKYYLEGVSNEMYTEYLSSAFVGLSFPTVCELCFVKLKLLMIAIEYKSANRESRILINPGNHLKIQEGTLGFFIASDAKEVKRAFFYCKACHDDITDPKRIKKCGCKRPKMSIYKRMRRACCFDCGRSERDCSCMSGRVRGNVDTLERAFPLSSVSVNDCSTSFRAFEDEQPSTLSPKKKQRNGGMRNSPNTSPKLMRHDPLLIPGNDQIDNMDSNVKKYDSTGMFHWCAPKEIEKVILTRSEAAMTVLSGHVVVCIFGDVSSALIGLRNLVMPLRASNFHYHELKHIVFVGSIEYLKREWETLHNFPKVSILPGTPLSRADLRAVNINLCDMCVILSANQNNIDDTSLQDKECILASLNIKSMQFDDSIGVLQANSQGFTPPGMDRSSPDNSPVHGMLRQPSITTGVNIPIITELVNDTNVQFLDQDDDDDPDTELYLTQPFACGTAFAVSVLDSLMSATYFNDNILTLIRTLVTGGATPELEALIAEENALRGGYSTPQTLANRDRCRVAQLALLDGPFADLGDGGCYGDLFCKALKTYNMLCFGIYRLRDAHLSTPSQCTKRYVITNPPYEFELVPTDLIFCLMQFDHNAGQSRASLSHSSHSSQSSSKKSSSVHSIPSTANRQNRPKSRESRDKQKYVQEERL
# Sequence (Q16558 whole entry partner): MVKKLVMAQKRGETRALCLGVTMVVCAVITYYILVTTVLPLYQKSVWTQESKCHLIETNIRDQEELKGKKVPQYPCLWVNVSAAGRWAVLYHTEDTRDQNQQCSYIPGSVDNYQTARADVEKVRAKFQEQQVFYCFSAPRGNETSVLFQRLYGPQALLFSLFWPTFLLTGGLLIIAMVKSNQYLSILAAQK
# measurement_protocol: BK current in CHO cells expressing human BKαβ1 (PatchXpress whole-cell patch clamp), EC100
# Type: cell-based
# run_conditions: drug concentration causing 100% increase of BK current
endpoint_label: log10 of EC100 (log10 of the value in µM)
# values: log10(EC100), units µM

Before answering, review these 3 worked examples.
[
  {
    "compound": "CCC(CC)(Oc1cc(N2CCC(OC)CC2)nc(-c2ccc(Cl)c(F)c2)n1)C(=O)[O-].[Na+] [Example 33]",
    "log10 of EC100": 0.24
  },
  {
    "compound": "COCCC1CCN(c2nc(-c3ccc(Cl)cc3)nc(OC3(C(=O)[O-])CC3)c2F)CC1.[Na+] [Example 1132]",
    "log10 of EC100": -0.39
  },
  {
    "compound": "COc1ccc(-c2nc(-c3ccc(Cl)cc3)nc(OC3(C(=O)O)CC3)c2C)cc1 [Example 1016]",
    "log10 of EC100": -0.30
  }
]

Look up log10 of EC100 for this compound: O=C([O-])C1(Oc2cc(N3CCc4ccc(F)cc4C3)nc(-c3ccc(Cl)cc3)n2)CC1.[Na+] [Example 1095]
-0.52

Look up log10 of EC100 for this compound: CCOCC1CCN(c2nc(-c3ccc(Cl)cc3)nc(OC3(C(=O)O)CC3)c2C)CC1 [Example 1116]
0.12

Look up log10 of EC100 for this compound: O=C([O-])C1(Oc2cc(N3CCc4ccc(Cl)cc4C3)nc(-c3ccc(F)cc3)n2)CC1.[Na+] [Example 1111]
-0.92

Look up log10 of EC100 for this compound: COCc1cccc(-c2cc(OC3(C(=O)[O-])CC3)nc(-c3ccc(Cl)c(F)c3)n2)c1.[Na+] [Example 526]
-0.44

* * *

# target_of_assay: human BKαβ1 channels (Homo sapiens)
# Construct: expressed in transfected cells; host or cells: CHO cells (G418 and hygromycin selection)
# measurement_protocol: BK current in CHO cells expressing human BKαβ1 (PatchXpress whole-cell patch clamp), EC100
# Type: cell-based
# run_conditions: drug concentration causing 100% increase of BK current
Documented EC100 across a set of compounds
# unit: µM | format: bare number

[
  {
    "compound": "COc1cccc(-c2cc(OC(C)(C)C(=O)[O-])nc(-c3ccc(Cl)c(F)c3)c2)c1.[Na+] [Example 206]",
    "readout_units": "µM",
    "EC100": 0.68
  },
  {
    "compound": "COCc1ccc(-c2cc(OC3(C(=O)[O-])CC3)nc(-c3ccc(Cl)c(F)c3)n2)cc1.[Na+] [Example 527]",
    "readout_units": "µM",
    "EC100": 0.37
  },
  {
    "compound": "O=C([O-])C1(Oc2cc(NC3CCCC3)nc(-c3ccc(Cl)c(F)c3)n2)CC1.[Na+] [Example 47]",
    "readout_units": "µM",
    "EC100": 0.33
  }
]

Look up EC100 for this compound: COc1nc(-c2cc(OC(C)(C)C(=O)[O-])nc(-c3ccc(Cl)c(F)c3)n2)cs1.[Na+] [Example 506]
1.38

Look up EC100 for this compound: CCCOCC1CCN(c2nc(-c3ccc(Cl)cc3)nc(OC3(C(=O)[O-])CC3)c2F)CC1.[Na+] [Example 1133]
1.29

Look up EC100 for this compound: COC[C@@H]1CCCN1c1nc(OC(C)(C)C(=O)[O-])nc(-c2ccc(Cl)c(F)c2)n1.[Na+] [Example 6]
1.61

Look up EC100 for this compound: O=C(O)C1(Oc2cc(-c3ccc(Cl)cc3)nc(OCc3ccc(F)c(F)c3)n2)CC1 [Example 1286]
1.2

Look up EC100 for this compound: O=C(O)C1(Oc2cc(-c3ccc(C(F)(F)F)nc3)nc(-c3ccc(Cl)c(F)c3)n2)CC1 [Example 888]
0.48

Look up EC100 for this compound: N#Cc1cccc(-c2cc(OC3(C(=O)[O-])CC3)nc(-c3ccc(Cl)c(F)c3)n2)c1.[Na+] [Example 548]
0.29

Look up EC100 for this compound: CC(C)(Oc1cc(N2CCC(C(C)(C)O)CC2)nc(-c2ccc(Cl)c(F)c2)n1)C(=O)[O-].[Na+] [Example 16]
1.91

Look up EC100 for this compound: Cc1cc(F)cc(-c2nc(-c3ccc(F)cc3)nc(OC3(C(=O)[O-])CC3)c2C)c1.[Na+] [Example 1000]
0.14

Look up EC100 for this compound: CCO[C@H]1CCCN(c2nc(OC3(C(=O)[O-])CC3)cc(-c3cc(Cl)c(Cl)s3)n2)C1.[Na+] [Example 1227]
0.37

Look up EC100 for this compound: COCc1ccc(-c2cc(OC(C)(C)C(=O)[O-])nc(-c3ccc(Cl)c(F)c3)n2)cc1.[Na+] [Example 485]
1.83

Look up EC100 for this compound: COC[C@@H]1CCCN1c1cc(OC(C)(C)C(=O)[O-])nc(-c2ccc(Cl)c(F)c2)n1.[Na+] [Example 12]
1.39

Look up EC100 for this compound: CCOc1ccc(-c2cc(OC3(C(=O)O)CC3)nc(-c3ccc(F)cc3)n2)c(C)c1 [Example 897]
0.62
